Numbers sourced from patent US9930890B2.

Condition Context: pH 7.8
Assay Endpoint: logp [b]

| Compound | Result |
| --- | --- |
| N#CCOc1ccc(C2CC(c3csc(C4CCN(C(=O)Cn5nc(C(F)F)cc5C(F)F)CC4)n3)=NO2)cc1 (centres unmarked) [I-81] | 2.8[b] |
| COC(=O)COc1ccc(C2CC(c3csc(C4CCN(C(=O)Cn5nc(C(F)F)cc5C(F)F)CC4)n3)=NO2)cc1 (centres unmarked) [I-128] | 2.87[b] |
| O=CNc1ccccc1C1CC(c2csc(C3CCN(C(=O)Nc4cc(C(F)F)ccc4C(F)F)CC3)n2)=NO1 (centres unmarked) [I-122] | 2.54[b] |
| Cc1cc(C(F)F)n(CC(=O)N2CCC(c3nc(C4=NOC(c5ccccc5OS(C)(=O)=O)C4)cs3)CC2)n1 (centres unmarked) [I-73] | 2.58[b] |
| CCS(=O)(=O)Oc1cccc(C2CC(c3csc(C4CCN(C(=O)Cn5nc(C(F)(F)F)cc5C)CC4)n3)=NO2)c1 (centres unmarked) [I-99] | 3.08[b] |
